Data credit: the Human Domainome abundance scans (Beltran et al. 2025)

B1: Retinoic acid receptor RXR-alpha, residues 132 to 208; numbered along this chain, P19793 (parent)
chain: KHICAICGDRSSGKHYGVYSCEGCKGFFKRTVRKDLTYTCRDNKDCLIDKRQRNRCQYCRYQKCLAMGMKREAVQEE

variants of: B1; assay: abundance fitness (aPCA) (normalised: wild type 0, dead -1); higher = more abundant; growth selection in yeast, the domain comes from the species named; settings: Homo sapiens
ASSAY_READOUT: abundance fitness
Give bare numbers.

VARIANT_SPEC	TEST_VALUE
I6H	-0.731

For every item in the list below, what is its measured abundance fitness?
1. G26N
2. R33P

1. -0.123
2. -0.143
